Molecular target: T1, glycoprotein from Marburg virus (MARV; Musoke isolate) (Marburg virus (MARV; Musoke isolate), UniProt P35253 19-648)
T1 sequence: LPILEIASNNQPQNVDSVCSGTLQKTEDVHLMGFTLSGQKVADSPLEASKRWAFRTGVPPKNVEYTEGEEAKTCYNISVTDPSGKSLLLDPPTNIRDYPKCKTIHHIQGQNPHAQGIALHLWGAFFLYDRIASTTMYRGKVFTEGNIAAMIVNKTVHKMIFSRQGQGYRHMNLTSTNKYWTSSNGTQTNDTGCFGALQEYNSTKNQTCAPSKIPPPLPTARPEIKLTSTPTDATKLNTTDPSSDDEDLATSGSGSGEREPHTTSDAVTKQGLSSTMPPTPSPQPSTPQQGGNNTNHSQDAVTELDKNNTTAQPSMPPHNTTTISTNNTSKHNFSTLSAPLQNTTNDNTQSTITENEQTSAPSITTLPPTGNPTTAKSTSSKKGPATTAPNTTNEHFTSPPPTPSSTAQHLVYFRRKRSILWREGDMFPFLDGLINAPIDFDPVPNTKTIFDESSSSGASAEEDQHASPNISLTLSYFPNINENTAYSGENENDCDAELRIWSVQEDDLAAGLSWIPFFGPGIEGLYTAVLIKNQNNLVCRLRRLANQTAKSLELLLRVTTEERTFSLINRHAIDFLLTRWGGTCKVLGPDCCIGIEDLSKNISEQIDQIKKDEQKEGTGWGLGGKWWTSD
Assay: summary of reactivity by any method (ELISA, Western blot, BIACORE)
PROPERTY NAME: binding result

[
  {
    "BINDER": "m16G8 (antibody, V domains shown) VH: EVQLQESGPGLVKPGASVKISCKASGYSFTGYYMNWVKQSPEKSLEWIGEINPSTGGTTYNQKFKAKATLTVDKSSSTAYMQLKSLTSEDSAVYYCVRYSHYYGSGSWYFDVWGTGTTVTVSS VL: DIQMTQSPASLSASVGETVTITCRASENIYSNLAWYQQKQGKSPQLLVNAATNLADGVPSRFSGSGSGTQFSLKINSLQPEDFGSYYCQHFYVTPYMFGSGTKLEIKR",
    "RESULT": "no binding"
  },
  {
    "BINDER": "m21B2 (antibody, V domains shown) VH: EVQLQESGAELVRPGASVTLSCKTSGYTFTDYEMHWVKQTPVHGLEWIGAIDPETGGTAYNQKFKGKATLTADKSSSTAYMELSRLTSEDSAVYYCTGNYATDYWGQGTSVTVSS VL: DIVMSQSPSSLAVSAGEKVTMSCKSSQSLFNSRSRKNYLAWYQLKPGQSPKLLIYWASTRESGVPDRFTGSGSGTDFTLTISSVQAEDLAVYYCKQSNYLWTFGGGTKLEIKR",
    "RESULT": "binds"
  },
  {
    "BINDER": "m2E4 (antibody, V domains shown) VH: EVQLQESGPELVKPGASVKISCKASGYSFTGYYMNWVKQSPEKSLEWIGEINPSTGGTTYNQKFKAKATLTVDKSSSTAYMQLKSLTSEDSAVYYCVRYSHYYGSGSWYFDVWGTGTTVTVSS VL: DIQMTQSPASLSASVGETVTITCRASENIYSNLAWYQQKQGKSPQLLVNAATNLADGVPSRFSGSGSGTQFSLKINSLQPEDFGSYYCQHFYVTPYTFGSGTKLEIKR",
    "RESULT": "no binding"
  }
]
